assayNotes: Probe fluorescence ratio response to arachidonic acid relative to ADIFAB2
Type: binding
measurementSetup: Table 5; Arachidonic acid

| molecule | ΔR/DRAΔ2 AA |
| --- | --- |
| L2P8A6: FABP probe, substitutions M18I G31V F55V A73V vs SEQ ID NO: 2 (protein, listed as Rattus norvegicus, PEPTIDE (1)...(131) wild-type rat intestinal fatty acid binding protein) AFDGTWKVDRNENYEKFIEKMGINVVKRKLVAHDNLKLTITQEGNKFTVKESSNVRNIDVVFELGVDFAYSLVDGTELTGTWTMEGNKLVGKFKRVDNGKELIAVREISGNELIQTYTYEGVEAKRIFKKE | 0.6 |
